# target.system: Gal(a1-3)GalNAc
# assay.method.text: glycan array binding signal (z-score within array); higher = stronger binding
# test.context: glycan notation: IUPAC condensed, linker removed
This excerpt belongs to a sample that is enriched for the strongest signals.
observable: glycan array binding signal (z-score)
Answer as a number with no unit attached.

| binder | observable | measured.value |
| --- | --- | --- |
| DC-ASGPR L+GEE (Homo sapiens) (protein) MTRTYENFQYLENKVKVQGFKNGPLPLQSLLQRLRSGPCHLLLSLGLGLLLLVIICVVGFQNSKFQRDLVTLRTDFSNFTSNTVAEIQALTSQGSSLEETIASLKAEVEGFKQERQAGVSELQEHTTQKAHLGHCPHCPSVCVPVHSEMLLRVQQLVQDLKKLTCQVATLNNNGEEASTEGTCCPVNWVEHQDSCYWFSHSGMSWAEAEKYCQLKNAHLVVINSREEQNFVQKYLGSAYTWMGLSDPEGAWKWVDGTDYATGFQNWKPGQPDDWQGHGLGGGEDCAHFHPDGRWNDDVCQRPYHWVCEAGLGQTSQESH | glycan array binding signal (z-score) | -0.254 |

For the next question, use this binder.
Report glycan array binding signal (z-score) for CLECb-Precomplexed (Mus musculus), P43025 (protein) MAKNGLVLCILVVSLLLDQTDGYPSRMKARKHSKRRVKAKDDDLKSQVEKLWREVNALKEMQALQTVCLRGTKVHKKCYLASEGLKHYHEANEDCISKGGTLVVPRNSDEINALRDYGKRSLPGVNDFWLGINDMVTEGKFLDVHGFAVSFLNWDRAQPSGGKRENCVLFSQSAQGKWSDEACRSSKRYICEFIIPTRTRPLEQKLISEEDLAANDILDYKDDDDKV please.
-0.387
